The following compounds are shown together with reported melting point values.

Dear colleague, I am looking for the recorded melting point of the following compound: CCOC(=O)C1(O)CCSc2ccccc21 (stereo not given)
117 to 119 °C

Now give it for `O=C(CNC(=O)c1ccc([N+](=O)[O-])cc1[N+](=O)[O-])OCc1ccccc1` too.
116 to 118 °C

Now give it for `Cc1ccc(C(=O)Nc2cccnc2)c(Nc2ccc3cn[nH]c3c2)n1` too.
> 280 °C

Now give it for `O=C(O)c1ccc2c(COc3cccnc3)csc2c1` too.
248 to 250 °C

Now give it for `CC(=O)n1ccc2c(I)ncnc21` too.
123 to 124 °C

Now give it for `O=S(=O)(CCCCCOc1ccc(C2=C(c3ccccc3)CCCc3cc(O)ccc32)cc1)CCCC(F)(F)C(F)(F)F` too.
176 to 178 °C

Now give it for `NC(=O)c1ccc2[nH]c(=O)oc2c1` too.
296 °C

Now give it for COc1ccc(-c2cnc(N3CCc4c([nH]c5ccccc45)C3c3ccc4c(c3)OCO4)nc2)cc1 (stereo not given) too.
200 to 202 °C

Now give it for `CC(=O)OCC(=O)c1ccc(Cl)c(Cl)c1` too.
68 to 70 °C

Now give it for `COC(=O)c1cccc(NC(=O)NCC(=O)N(CC(=O)N2CCCC2)c2ccccc2C(=O)c2ccccc2)c1` too.
189 to 194 °C

Now give it for `CCN1C[C@@H](SCc2ccc(OC)cc2)C[C@H]1C(=O)NC` too.
68 to 70 °C

Now give it for `COc1ccc(N2CCOCC2)c2sc(-c3nc(-c4ccccc4)c[nH]3)nc12` too.
226 to 233 °C

Now give it for O=C(O)C1C2OCCC21Br (mixture of isomers) too.
196 to 198 °C

Now give it for `CC1(C)CCC(C)(C)c2cc(C#Cc3ccc(/C=C/C(=O)O)cc3)ccc21` too.
256 to 258 °C

Now give it for O=C1NC(=S)CCC1N1C(=O)c2ccccc2C1=O (stereo not given) too.
225 to 226 °C

Now give it for `CCc1nc(-c2ccc(OCCCn3ccnc3)cc2)no1` too.
74 to 75.5 °C

Now give it for `ON=C(c1ccc(F)cc1)c1ccc2nc(N[C@@H]3CCc4ccccc43)ccc2c1` too.
226 °C

Now give it for `Cc1ccc(C(=O)N[C@@H]2COc3c(C)ccc(N4CCN(C)CC4)c3C2)cc1` too.
191 to 192 °C

Now give it for `CN(C)Cc1nc(CO)nn1-c1ccc(Cl)cc1C(=O)c1ccccc1` too.
198 to 200 °C

Now give it for `Cc1c(CCOCCO[N+](=O)[O-])cc(-c2ccc(S(C)(=O)=O)cc2)n1-c1ccccc1` too.
78 to 80 °C

###

The following compounds are shown together with reported melting point values.

Use these answered entries as a reference point.
O=[N+]([O-])c1sc(Oc2ccccc2)nc1Cl	96 °C
CCc1nc2nccc(C)c2[nH]1	117 to 119 °C
CC(C)(c1ccc(O)cc1)c1ccc(N2C(=O)C=CC2=O)cc1	168 to 171 °C

Dear colleague, I am looking for the recorded melting point of the following compound: CC(=O)OCC1C(C(=O)O)C1(C)C (stereo unspecified)
78 to 79 °C

Now give it for CCOC1OC(O)C(F)(F)C(F)(F)C1(F)F (stereo unspecified) too.
84 to 86 °C

Now give it for `O=C(O)Cc1nn(Cc2nc3cc(O)cc(O)c3s2)c(=O)c2ccccc12` too.
184 °C

###

The following compounds are shown together with reported melting point values.

CC(C)(CNc1ccnc2cc(Cl)ccc12)NCc1ccc(C(F)(F)F)cc1	145 to 147 °C
COc1cc(CC#Cc2c(C)nc(N)nc2N)cc(OC)c1OC	164 to 166 °C
CN1C(=O)c2ccccc2OC1(C)COc1ccc(CC2SC(=O)NC2=O)cc1 (stereo not drawn)	58 to 60 °C
CCCCNC(=O)NS(=O)(=O)c1ccc(CCNC(=O)N2CCC(C)CC2=O)cc1 (stereo not drawn)	159 to 161 °C
CN1CCN(c2cccc3c2C[C@H](NC(=O)CCCc2ccccc2)CC3)CC1	137 to 139 °C

Dear colleague, I am looking for the recorded melting point of the following compound: COc1ccc(Cl)cc1C1(F)C(=O)Nc2cc(I)ccc21 (stereo not drawn)
205 to 210 °C

###

parameter: melting point

Use these answered entries as a reference point.
CC(=O)SCC(Cc1ccccc1)C(=O)Nc1cc(C(=O)O)ccc1Cl (centres undefined)	204 to 206 °C
CC(C)n1cc(C(=O)O)c(=O)c2cc(F)c(F)c(F)c21	256 to 260 °C
CC(C)(C)NS(=O)(=O)c1cnc(-c2cn(-c3cc(-c4ccc(C(F)(F)F)cc4)cc(C(F)(F)F)n3)cn2)s1	252 °C

Here's the next entry for you.
Dear colleague, I am looking for the recorded melting point of the following compound: `COc1cc(C=O)c(Br)c(Cl)c1OC`
118 to 119 °C

###

parameter: melting point

Use these answered entries as a reference point.
COc1ccc(C(=C/C=C/C(=O)O)c2ccc(OC)c(OC)c2)cc1OC	174 to 176 °C
COc1ccc(S(=O)(=O)N2CCc3cccc(-c4ccccn4)c32)cc1	195 to 197 °C

Dear colleague, I am looking for the recorded melting point of the following compound: `Nc1ncccc1OCc1ccc(F)cc1F`
105 to 107 °C

Now give it for `COc1cc(OC)c([N+](=O)[O-])cc1C(=O)CCCCCl` too.
93 to 95 °C

Now give it for `CC(C)(Cc1cc2ccccc2[nH]1)[N+](=O)[O-]` too.
102 to 103 °C

Now give it for `C=CCNc1nc(NC(=O)NCCCC)c2scc(C)c2n1` too.
141 °C

Now give it for `CCCCNC(=O)Nc1c(N)cccc1C(=O)NCC1CCN(C(c2ccccc2)c2ccccc2)CC1` too.
212 to 213 °C

Now give it for `Fc1ccc(N2CCN(Cc3cn4cc(Br)ccc4n3)CC2)cc1` too.
110 to 112 °C

Now give it for `O=C1C(Br)=C(Br)C(=O)c2ncccc21` too.
243 to 245 °C

Now give it for `CCCCCCCCCC(=O)Nc1ccc(C=C(C#N)C(=O)OCC)cc1` too.
76 °C

###

parameter: melting point

COC(=O)C1CSCC1=O (stereo not drawn)	51 °C

Dear colleague, I am looking for the recorded melting point of the following compound: `N#Cc1cccc(-n2cc(-c3ccccn3)cn2)n1`
260 to 261 °C

Now give it for `C=Cc1ccc(C(=O)OC(C)(C)C)c(C#N)c1` too.
51 to 53 °C

Now give it for `CCOc1cc(=O)n(-c2ccc([N+](=O)[O-])cc2)[nH]1` too.
143 °C

###

parameter: melting point

Use these answered entries as a reference point.
COc1ccc2c(c1)c1c3c(c(-c4c(Cl)cccc4OC)cc1n2CCO)C(=O)NC3=O	264 to 268 °C
COc1ccc2c(c1O)NC(O)C1CCCN1C2=O (stereo unspecified)	152 to 155 °C
N#CC(N=Cc1ccc([N+](=O)[O-])cc1)=C(Cl)Cl	171 to 174 °C
Cc1c(-c2ccccc2)oc2c(C(=O)NCCCN3CCN(c4ccc(Cl)cc4)CC3)cccc2c1=O	200 to 204 °C
Cc1c(C)c2cc(CCN3CCN(c4n[nH]c5ccccc45)CC3)ccc2[nH]c1=O	266 to 268 °C

Here's the next entry for you.
Dear colleague, I am looking for the recorded melting point of the following molecule: `O=C(O)CCc1ccc(OCc2ccccc2)cc1OCc1ccccc1`
125 to 127 °C

###

The following compounds are shown together with reported melting point values.

Dear colleague, I am looking for the recorded melting point of the following compound: O=C1N(CC2CCCO2)c2cccc(Br)c2C12COc1cc3c(cc12)CCO3 (stereo not given)
137 to 141 °C

Now give it for `O=C(O)c1ccccc1OCCN1CCC(c2cn(CCC3OCCO3)c3ccccc23)CC1` too.
118 to 120 °C

Now give it for `Oc1c(Br)cc(Br)c2c(Cl)ncnc12` too.
198 to 199 °C

Now give it for `COC(=O)C(C)(C)OCc1cc(-c2ccc(Cl)s2)no1` too.
128 to 130 °C

Now give it for `CC(C)c1ccc(CCNc2ncnc3ncccc23)cc1` too.
200 to 203 °C

Now give it for CNC(C(C)C)C(c1ccccc1)c1ccccc1 (stereo not given) too.
46 to 48 °C

Now give it for OCC1Cc2c(ccc3c(-c4ccccc4)noc23)O1 (stereo not given) too.
107 to 109 °C

Now give it for `CCOC(=O)CC(=Nc1cc([N+](=O)[O-])ccc1Cl)OC` too.
60 to 62 °C

Now give it for `O=C(CNC(=O)OC(c1ccccc1)c1ccccc1)Oc1c(Cl)c(Cl)c(Cl)c(Cl)c1Cl` too.
171 to 172 °C

Now give it for `CSc1cc2c(N3CCc4ccc(Cl)cc43)ncnc2cc1Cl` too.
167 to 168 °C

Now give it for `COc1ccc(CCNC(=O)C(=O)NCc2cccnc2)cc1OC1CCCC1` too.
148 to 149 °C
